Target: Glycogen synthase kinase-3 beta (Homo sapiens, UniProt P49841)
Sequence (P49841 whole entry): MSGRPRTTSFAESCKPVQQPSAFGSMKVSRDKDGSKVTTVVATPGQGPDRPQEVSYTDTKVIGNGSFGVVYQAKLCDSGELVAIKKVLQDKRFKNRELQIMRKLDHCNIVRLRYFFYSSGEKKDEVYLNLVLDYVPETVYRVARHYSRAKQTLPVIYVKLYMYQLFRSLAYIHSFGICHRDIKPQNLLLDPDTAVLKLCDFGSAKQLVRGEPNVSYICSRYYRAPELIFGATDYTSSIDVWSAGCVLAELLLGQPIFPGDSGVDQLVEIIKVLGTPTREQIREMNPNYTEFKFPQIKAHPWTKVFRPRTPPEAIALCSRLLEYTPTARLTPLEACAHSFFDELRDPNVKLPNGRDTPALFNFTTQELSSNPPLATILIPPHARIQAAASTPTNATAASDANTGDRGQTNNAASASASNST
Test: Inhibition of human recombinant GSK3beta

chemical-structure | readout-unit | Ki
Clc1cc(-c2c[nH]c3ncccc23)cc(NC2CCCCC2)n1 | nM | 58

----------
Molecular target: Cell division cycle 7-related protein kinase (Homo sapiens)
Sequence (O00311 whole entry): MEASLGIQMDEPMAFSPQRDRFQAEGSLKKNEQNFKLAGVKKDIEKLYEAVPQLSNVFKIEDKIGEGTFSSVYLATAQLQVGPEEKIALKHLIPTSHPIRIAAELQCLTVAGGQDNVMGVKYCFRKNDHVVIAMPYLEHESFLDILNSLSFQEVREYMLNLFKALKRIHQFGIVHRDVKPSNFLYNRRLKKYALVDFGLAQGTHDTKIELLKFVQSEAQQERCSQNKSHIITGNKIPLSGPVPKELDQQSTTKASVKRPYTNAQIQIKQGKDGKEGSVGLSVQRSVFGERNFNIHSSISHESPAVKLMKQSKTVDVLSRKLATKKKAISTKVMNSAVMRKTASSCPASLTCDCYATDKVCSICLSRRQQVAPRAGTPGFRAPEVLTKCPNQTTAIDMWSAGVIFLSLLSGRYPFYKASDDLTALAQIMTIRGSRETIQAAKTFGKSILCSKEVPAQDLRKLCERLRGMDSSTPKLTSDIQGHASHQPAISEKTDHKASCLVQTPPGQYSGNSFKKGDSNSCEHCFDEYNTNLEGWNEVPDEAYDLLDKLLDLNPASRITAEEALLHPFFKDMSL
pKi: −log10 of the molar value.
quantity-measured: pKi

chemical-structure | subject-of-test | recorded-measurement
N#Cc1cc(-c2c[nH]c3ncccc23)cc(NCc2ccccc2)n1 | Cell division cycle 7-related protein kinase (Homo sapiens) | 8.85
Cc1cc(-c2c[nH]c3ncccc23)cc(N[C@H]2CC[C@H](O)CC2)n1 | Cell division cycle 7-related protein kinase (Homo sapiens) | 7.57
Clc1cc(-c2c[nH]c3ncccc23)cc(NC2CCCCC2)n1 | Cell division cycle 7-related protein kinase (Homo sapiens) | 9.05
c1cnc2[nH]cc(-c3ccnc(NC4CCCCC4)c3)c2c1 | Cell division cycle 7-related protein kinase (Homo sapiens) | 8.06
O[C@H]1CC[C@H](Nc2cc(-c3c[nH]c4ncccc34)cc(F)n2)CC1 | Cell division cycle 7-related protein kinase (Homo sapiens) | 8.77
Cc1cc(-c2c[nH]c3ncccc23)cc(NC2CCCCC2)n1 | Cell division cycle 7-related protein kinase (Homo sapiens) | 7.89
N#Cc1cc(-c2c[nH]c3ncccc23)cc(NC2CCCCC2)n1 | Cell division cycle 7-related protein kinase (Homo sapiens) | 8.11
